Protocol Notes: MALDI quantitative MSI (on-tissue qMSI) of rotenone in kidney tissue sections after a single oral dose
Assay type: in vivo
Setup Conditions: rat, kidney, po, 2 mg/kg, single oral 2 mg/kg, Kidney Tissue 2 (layer 2), read-out: Concentration
Measure: concentration at 24 h (ng/mL)
Numeric only. Scale: ng/mL

So what's the measured concentration at 24 h for this one? C=C(C)[C@H]1Cc2c(ccc3c2O[C@@H]2COc4cc(OC)c(OC)cc4[C@@H]2C3=O)O1
2000

----------
Protocol Notes: MALDI quantitative MSI (on-tissue qMSI) of rotenone in kidney tissue sections after a single oral dose
Type: in vivo
Setup Conditions: rat, kidney, po, 2 mg/kg, single oral 2 mg/kg, Kidney Tissue 3 (layer 3), read-out: Relative concentration per tissue section
Measure: concentration at 24 h (ng/g)
Could you give me the number in ng/g? Just the number is fine.

# input compound: C=C(C)[C@H]1Cc2c(ccc3c2O[C@@H]2COc4cc(OC)c(OC)cc4[C@@H]2C3=O)O1 [rotenone, Rotenone] ; wanted: its concentration at 24 h
1910

----------
Protocol Notes: MALDI quantitative MSI (on-tissue qMSI) of rotenone in kidney tissue sections after a single oral dose
Assay type: in vivo
Setup Conditions: rat, kidney, po, 2 mg/kg, single oral 2 mg/kg, Kidney Tissue 6 (layer 6), read-out: Concentration
Measure: concentration at 24 h

# concentration at 24 h lookup, item C=C(C)[C@H]1Cc2c(ccc3c2O[C@@H]2COc4cc(OC)c(OC)cc4[C@@H]2C3=O)O1
8000 ng/mL
